Measured normalized growth, listed per entry.
assay: chemical genetic growth profiling, strain panel (AID 1159580);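 also: tested at 20 µM; growth read once vehicle control cultures reached saturation at 30 °C; 1 = growth at the plate median or of vehicle wells; lower values mean less growth of the strain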; settings: S. cerevisiae deletion strains, growth OD, locus YPR111W, strain DBF20, hits give low values
The campaign covered roughly 5,500 compounds. About 2,000 (36%) were called active. Roughly 18% stayed inconclusive and do not appear here. The list shows a part of the results.
Form: value (number only, do not type unit).

molecularString | normalized growth
O=C(Nc1ccccc1C(=O)O)OCC1c2ccccc2-c2ccccc21 | 0.96
O=C1Nc2ccccc2/C1=C\c1c[nH]c2ccccc12 | 0.93

Entry `O=C1Nc2ccccc2/C1=C\c1cccc2ccccc12` — recorded normalized growth = 0.949

Entry `CC(C)/C(=N/OC(=O)c1ccc([N+](=O)[O-])cc1)c1ccccc1` ; normalized growth = 0.972

----------
Quick reference: normalized growth of the listed items.
experiment: chemical genetic growth profiling, strain panel (AID 1159580); settings: S. cerevisiae deletion strains, growth OD, locus YER155C, strain BEM2, hits give low values
The campaign covered roughly 5,500 compounds. About 2,000 (36%) were called active. About 18% were inconclusive and are not listed. Some of the results follow.
No unit in the answer, only the number.

compound | normalized growth
CCCCC(=O)O[C@]1(C(=O)CO)[C@@H](C)CC2C3CCC4=CC(=O)C=C[C@]4(C)[C@@]3(F)C(O)C[C@@]21C (some centres not stated) | 1.01
COc1ccc(-c2cc(=O)c3c(O)cc(O)c(-c4cc(-c5cc(=O)c6c(O)cc(O)cc6o5)ccc4OC)c3o2)cc1 | 1.01
CCC(=O)O[C@]1(C(=O)CCl)[C@@H](C)CC2C3CCC4=CC(=O)C=C[C@]4(C)[C@@]3(F)[C@@H](O)C[C@@]21C (some centres not stated) | 0.987

Sample Oc1ccc2c3c1OC1[C@@H](O)CC[C@@]4(O)[C@@H](C2)N(CC2CCC2)CC[C@]314 (some centres not stated) ; normalized growth observed: 1.01

Lookup result for `COc1cc(C)c2c(=O)c3c(O)cc(OC)cc3oc2c1` ; measured normalized growth: 1

For record CCC(=O)OCC(=O)C1(OC(=O)CC)C(C)CC2C3CCC4=CC(=O)C=CC4(C)C3(Cl)C(O)CC21C (configuration not stated) the listed normalized growth is 1.01

Lab book: normalized growth of NC[C@H]1O[C@H](OC2[C@@H](N)C[C@@H](N)[C@H](O[C@H]3O[C@H](CO)[C@@H](O)[C@H](N)[C@H]3O)[C@H]2O)[C@H](O)[C@@H](O)[C@@H]1O (some centres not stated) noted as 0.993

----------
experiment: chemical genetic growth profiling, strain panel (AID 1159580);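 also: tested at 20 µM; growth read once vehicle control cultures reached saturation at 30 °C; 1 = growth at the plate median or of vehicle wells; lower values mean less growth of the strain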; settings: S. cerevisiae deletion strains, growth OD, locus YLR262C, strain YPT6 (second series), hits give low values
Among all 5,500 compounds or so, about 2,000 (36%) were called active. Inconclusive results (about 18%) are left out. Some of the results follow.
measuredEndpoint: normalized growth
# output: bare number, no unit

compound | normalized growth
C=CCSC[C@@H](N)C(=O)O | 0.995

Just so you know, measured normalized growth for NCC(O)CC(=O)O (stereo unspecified) came out at 1

For reference, reported normalized growth for `CCCc1nn(C)c2c(=O)[nH]c(-c3cc(S(=O)(=O)N4CCN(C)CC4)ccc3OCC)nc12` stands at 0.986

The recorded normalized growth for entry COC1C(O)C(O[C@H]2CC[C@]3(C=O)C4C(CC[C@]3(O)C2)[C@@]2(O)CC[C@H](C3=CC(=O)OC3)[C@@]2(C)C[C@H]4OC(C)=O)OC(C)C1OC(C)=O (stereo partly specified) equals 1.05

Measured normalized growth, CC(=O)N1CCN(c2ccc(OCC3CO[C@](Cn4ccnc4)(c4ccc(Cl)cc4Cl)O3)cc2)CC1 (stereo partly specified) : 0.314

Just so you know, measured normalized growth for `C=CCSSCC=C` came out at 1.03

----------
Known normalized growth of a selection of compounds
test: chemical genetic growth profiling, strain panel (AID 1159580);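 also: tested at 20 µM; growth read once vehicle control cultures reached saturation at 30 °C; 1 = growth at the plate median or of vehicle wells; lower values mean less growth of the strain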; settings: S. cerevisiae deletion strains, growth OD, locus YGL240W, strain doc1, hits give low values
About 2,000 (36%) of roughly 5,500 compounds were called active. Roughly 18% stayed inconclusive and do not appear here. The list shows a part of the results.
Field format: numeric only.

Quick note, normalized growth for CC(=O)OCC(=O)[C@@]1(O)CCC2C3C[C@H](C)C4=CC(=O)C=CC4(C)C3[C@@H](O)CC21C (some centres not stated) landed at 1

The compound identified as `N#Cc1c(Cl)cccc1Cl` registered its normalized growth at 0.965

Reported normalized growth for `CC(C)C[C@@H](NC(=O)OCC1c2ccccc2-c2ccccc21)C(=O)O` was 1.01

Measured normalized growth of C[C@]12CCC3C(CC[C@]4(O)C[C@@H](O)CC[C@]34C=O)[C@@]1(O)CCC2C1=CC(=O)OC1 (some centres not stated) : 1.03

The value of normalized growth measured for the compound C[C@H]1O[C@@H](O[C@H]2[C@@H](O)C[C@H](O[C@H]3[C@@H](O)C[C@H](O[C@H]4CC[C@]5(C)C6C[C@@H](O)[C@]7(C)[C@@H](C8=CC(=O)OC8)CC[C@]7(O)C6CC[C@@H]5C4)O[C@@H]3C)O[C@@H]2C)C[C@H](O)[C@@H]1O (some centres not stated) turned out to be 0.973

Measured normalized growth, `O=S(=O)(O)O` : 0.982

In plain terms, CC(=O)OC1CC[C@@]2(C)C(CCC3C2CC[C@]2(C)C(C4=CC(=O)OC4)C(OC(C)=O)CC32O)C1 (some centres not stated) has a documented normalized growth of 0.99

For record `O=C(O)CCc1nc(-c2ccccc2)c(-c2ccccc2)o1` the listed normalized growth is 0.95

The value of normalized growth measured for the compound `NC(=O)c1cc([N+](=O)[O-])cc([N+](=O)[O-])c1` turned out to be 0.969

Given item COC1CC(OC2CCC3(C)C(CCC4C3CCC3(C)C(C5=CC(=O)OC5)C(OC(C)=O)CC43O)C2)OC(C)C1O (configuration not stated) , the value recorded as its normalized growth is 1.01

The recorded normalized growth for `COC1=CC(=O)C=C(OC)C1=O` is 0.914

Measured normalized growth, `Cc1ccc(-c2nc3ccc(C)cn3c2CC(=O)N(C)C)cc1` : 1.09

The compound listed as `CC[C@@]1(O)C(=O)OCc2c1cc1n(c2=O)Cc2cc3ccccc3nc2-1` has a reported normalized growth of 0.565

Value of measured normalized growth for the entry C[C@H]1O[C@@H](O[C@H]2[C@@H](O)C[C@H](O[C@H]3[C@@H](O)C[C@H](O[C@H]4CC[C@]5(C)C6CC[C@]7(C)[C@@H](C8=CC(=O)OC8)CC[C@]7(O)C6CC[C@@H]5C4)O[C@@H]3C)O[C@@H]2C)C[C@H](O)[C@@H]1O (some centres not stated) : 1.05

For this compound ( C[C@@H]1O[C@@H](O[C@H]2CC[C@]3(C=O)C4CC[C@]5(C)[C@@H](C6=CC(=O)OC6)CC[C@]5(O)C4CC[C@]3(O)C2)[C@H](O)[C@H](O)[C@H]1O (some centres not stated) ), measured normalized growth is 0.969

Quick note, normalized growth for COC(=O)C(N)CS (configuration not stated) landed at 0.941

normalized growth for CCC(=O)OCC(=O)C1(OC(=O)CC)C(C)CC2C3C(Cl)CC4=CC(=O)C=CC4(C)C3C(O)CC21C (configuration not stated) is 1.01

----------
assay: chemical genetic growth profiling, strain panel (AID 1159580);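 also: tested at 20 µM; growth read once vehicle control cultures reached saturation at 30 °C; 1 = growth at the plate median or of vehicle wells; lower values mean less growth of the strain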; conditions: S. cerevisiae deletion strains, growth OD, locus YHR079C, strain IRE1, hits give low values
The whole screen tested about 5,500 compounds, of which about 2,000 (36%) were called active. Another 18% or so got no clear call; they are omitted. The list shows a part of the results.
measuredEndpoint: normalized growth
Reply with the value as a number alone.

compound | resultValue
CO[C@H]1[C@H](O)[C@@H](O[C@H]2CC[C@]3(C=O)C4CC[C@]5(C)[C@@H](C6=CC(=O)OC6)CC[C@]5(O)C4CC[C@@H]3C2)O[C@@H](C)[C@@H]1O (some centres undefined) | 0.965
CC(=O)c1ccc(S(=O)(=O)NC(=O)NC2CCCCC2)cc1 | 0.963
COC1=CC(C)[C@@H]2C[C@H]3OC(=O)C[C@H]4C(C)=C(OC)C(=O)C([C@@]34C)[C@@]2(C)C1=O (some centres undefined) | 1.01

Here is the next item to consider.
For record C[C@H]1O[C@@H](O[C@H]2[C@@H](O)C[C@H](O[C@H]3[C@@H](O)C[C@H](O[C@H]4CC[C@]5(C)C6CC[C@]7(C)[C@@H](C8=CC(=O)OC8)CC[C@]7(O)C6CC[C@@H]5C4)O[C@@H]3C)O[C@@H]2C)C[C@H](O)[C@@H]1O (some centres undefined) the listed normalized growth is 1.03
